System: GM3 expression on the cell surface, B16 mouse melanoma cells
protocol-notes: cell based phenotypic assay, cell surface GM3 by antibody mediated immunofluorescence, B16 (GM3 B16 IC50)
condition-summary: Mus musculus, B16 mouse melanoma cells; 50% inhibition of GM3 expression on the cell surface; read-out: GM3 B16 IC50
readout-label: IC50
The reply should read as a number followed by its unit.

In the examples that follow, each entry is paired with its recorded IC50.
[
  {
    "compound": "COCCCOc1ccc(-c2ccc(C(C)(C)NC(=O)NC3(C)CN4CCC3CC4)cc2)cc1 (stereo not shown)",
    "result": "0.0203 µM"
  },
  {
    "compound": "COCCCc1ccc(-c2ccc(C3(NC(=O)NC4(C)CCN5CCC4CC5)CC3)cc2)cc1 (stereo not shown)",
    "result": "0.0059 µM"
  },
  {
    "compound": "CCCC1(NC(=O)NC(C)(C)c2ccc(-c3ccc(S(C)(=O)=O)cc3)cc2)CN2CCC1CC2 (stereo not shown)",
    "result": "0.0329 µM"
  }
]

Given the compound CC1(NC(=O)C2(F)CCN(c3ncnc(OCc4ccc(F)cc4)n3)CC2)CCN2CCC1CC2 (stereo not shown) , what is its reported IC50?
0.654 µM

Given the compound COCCOc1ccc(-c2ccc(C3(NC(=O)NC4(C)CCN5CCC4CC5)CC3)cc2)cc1 (stereo not shown) , what is its reported IC50?
0.000516 µM

Given the compound COCCOc1ccc(-c2nc(N3CCC(C(=O)NC4(C)CCN5CCC4CC5)CC3)ncc2F)cc1 (stereo not shown) , what is its reported IC50?
0.0209 µM

Given the compound CCC1(NC(=O)NC(C)(C)c2ccc(-c3ccc(C(=O)N4CC(F)(F)C4)cc3)cc2)CN2CCC1CC2 (stereo not shown) , what is its reported IC50?
0.0554 µM

// data source = patent US12060349B2
